Molecular target: Human P2Y12 (Homo sapiens)
Construct: expressed in transfected cells; host or cells: HEK cells (membrane preparation)
Sequence (Q9H244 whole entry): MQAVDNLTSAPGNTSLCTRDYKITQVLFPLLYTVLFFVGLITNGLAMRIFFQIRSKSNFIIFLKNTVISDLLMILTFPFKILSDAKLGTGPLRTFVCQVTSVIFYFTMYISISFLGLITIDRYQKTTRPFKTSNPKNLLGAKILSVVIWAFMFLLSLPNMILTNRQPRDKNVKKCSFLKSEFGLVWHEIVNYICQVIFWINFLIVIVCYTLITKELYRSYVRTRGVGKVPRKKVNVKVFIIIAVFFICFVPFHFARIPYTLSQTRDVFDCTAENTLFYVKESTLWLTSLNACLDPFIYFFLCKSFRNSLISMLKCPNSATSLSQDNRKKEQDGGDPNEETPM
Assay: [^33P]-2MeS-ADP Binding to Recombinant Human P2Y12 Membranes (Assay 3)
Conditions: membranes of HEK cells transfected with P2Y12; competition with ^33P 2MeS-ADP; multiple lines = multiple runs
Provide the reported Ki of each item.
Numbers only, in µM.

Please review the entries below; each comes with its answer.
• CCc1cc2c(N3CCN(C(=O)c4ccc(-c5ccccc5)cc4)CC3)nc(NC(=O)CN)nc2s1 = 0.085
• CCc1cc2c(N3CCN(C(=O)c4ccc(-c5ccccc5)cc4)CC3)nc(NC(=O)CCC(=O)O)nc2s1 = 0.008
• CCc1cc2c(N3CCN(C(=O)c4ccc(-c5ccccc5)cc4)CC3)nc(NC(=O)NCCC(=O)O)nc2s1 = 0.003

Input line: Under Human P2Y12 (Homo sapiens): Ki value of CCc1cc2c(N3CCN(C(=O)c4ccc(-c5ccccc5)cc4)CC3)nc(NC(=O)COCc3ccccc3)nc2s1 ?
Output line: 0.119
